Reported Apical domain:HSA is given for each of the following binders.
Biological target: apical domain of CD71 (Screen 3: 'cynomolgus apical domain of human CD71') (cynomolgus (as paragraph 454 words it; ambiguous))
Test: primary ELISA, RLU ratio to HSA
value_kind: Apical domain:HSA

[[record]]
binder = "CD71-binding FN3 domain SEQ ID NO: 314 (designed binder) MGSLPAPKNLVVSRVTEDSARLSWTAPDAAFDSFEIGYFENLYLGEAIVLTVPGSERSYDLTGLKPGTEYWVQIGGVKGGNWSAPLSAIFTT"
observed_value = 427

[[record]]
binder = "CD71-binding FN3 domain SEQ ID NO: 276 (designed binder) MSLPAPKNLVVSRVTEDSARLSWTAPDAAFDSFEIAYFELDYVGEAIVLTVPGSERSYDLTGLKPGTEYWVQIGGVKGGTWSGPLSAIFTI"
observed_value = 90

